Hello, the source for this data is ChEMBL document CHEMBL1139973, in case you need it.

# measurementNotes: Growth inhibition of human WI38 cells
# Assay type: cell-based
# experimentalParameters: WI-38
pIC50: −log10 of the molar value.
The reader will find reported pIC50 values listed item by item below.
assayEndpoint: pIC50

>>> assayvalue("C=C1[C@@H](OC(C)=O)CC[C@@]2(C)C[C@H](OC(C)=O)C3=C(C)CC[C@@H]([C@@H](OC(C)=O)[C@H]12)C3(C)C")
5.05
>>> assayvalue("C=C1[C@@H](OC(C)=O)CC[C@@]2(C)C[C@H](OC(C)=O)C3=C(C)C[C@H](O)[C@@H]([C@@H](OC(C)=O)[C@H]12)C3(C)C")
3.88
>>> assayvalue("C=C1[C@@H](OC(C)=O)CC[C@@]2(C)C[C@H](O)C3=C(C)C[C@H](OC(=O)/C=C/c4ccccc4)[C@@H]([C@@H](OC(C)=O)[C@H]12)C3(C)C")
4.87
>>> assayvalue("C=C1[C@@H](OC(C)=O)CC[C@@]2(C)C[C@H](OC(C)=O)C3=C(C)C[C@H](OC(=O)/C=C/c4ccccc4)[C@@H]([C@@H](OC(C)=O)[C@H]12)C3(C)C")
3.81
>>> assayvalue("C=C1[C@@H](OC(C)=O)CC[C@@]2(C)C[C@H](OC(C)=O)C3=C(C)C[C@H](OC(C)=O)[C@@H]([C@@H](OC(C)=O)[C@H]12)C3(C)C")
3.89
